System: 282377-053-R-J1-PDC complex spheroids, viability
Test: Anticancer human tumor 282377-053-R-J1-PDC patient-derived colon adenocarcinoma cell line growth inhibition [GQUAD]
Details: second compound 0.0316 µM; first compound 0.316 µM; stronger effect = lower value
viability, T/C less than 90% is t; viability, T/C greater than or equal to 90% is f.

Task: Below 90% on viability, T/C? Entry CC(C)(O)C1CCC(Nc2ccc3ncc(-c4cccc(C(F)(F)F)c4)n3n2)CC1 (stereo not given) + CN(C)c1ccc(Nc2c3ccc(NC(=O)CCN4CCCC4)cc3nc3cc(NC(=O)CCN4CCCC4)ccc23)cc1
Result: t

Task: Below 90% on viability, T/C? Entry COc1cccc2c1C(=O)c1c(O)c3c(c(O)c1C2=O)CC(O)(C(=O)CO)CC3OC1CC(N)C(O)C(C)O1 (stereo not given) + Cc1[nH]c2ccc(F)cc2c1-c1nc2c3cccnc3c3ncccc3c2[nH]1
Result: t

Task: Below 90% on viability, T/C? Entry COc1ncnc(C2CC2)c1-c1ncc2cnn(Cc3ccc(-c4nc(C(F)(F)F)cn4C(C)C)cc3)c2n1 + CN(C)c1ccc(Nc2c3ccc(NC(=O)CCN4CCCC4)cc3nc3cc(NC(=O)CCN4CCCC4)ccc23)cc1
Result: f

Task: Below 90% on viability, T/C? Entry C=CCn1c(=O)c2cnc(Nc3ccc(N4CCN(C)CC4)cc3)nc2n1-c1cccc(C(C)(C)O)n1 + Cc1cnc(CNC(=O)c2c(=O)c3ccc(N4CCCN(C)CC4)nc3n3c2sc2ccccc23)cn1
Result: f

---

Tested on: 282377-053-R-J1-PDC complex spheroids, viability
Assay: Anticancer human tumor 282377-053-R-J1-PDC cell line growth inhibition [GQUAD];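 note: spheroids exposed to compounds for 7 days before readout; percent of vehicle DMSO control viability with 100% = untreated-like growth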
Conditions: second compound 10 µM; first compound 1 µM; stronger effect = lower value
I'd appreciate it if you could supply viability, T/C values for the items below.
Dear colleague, please return just the value in %, with no unit written.

Task: Which viability, T/C reading was recorded for the compound COc1cc(C2c3cc4c(cc3C(OC3OC5COC(C)OC5C(O)C3O)C3COC(=O)C23)OCO4)cc(OC)c1O (stereo not given) + Cc1[nH]c2ccc(F)cc2c1-c1nc2c3cccnc3c3ncccc3c2[nH]1 ?
Result: 32.7

Task: Which viability, T/C reading was recorded for the compound C=CCn1c(=O)c2cnc(Nc3ccc(N4CCN(C)CC4)cc3)nc2n1-c1cccc(C(C)(C)O)n1 + CN(C)c1ccc(Nc2c3ccc(NC(=O)CCN4CCCC4)cc3nc3cc(NC(=O)CCN4CCCC4)ccc23)cc1 ?
Result: 78.4

Task: Which viability, T/C reading was recorded for the compound C=CCn1c(=O)c2cnc(Nc3ccc(N4CCN(C)CC4)cc3)nc2n1-c1cccc(C(C)(C)O)n1 + Cc1cnc(CNC(=O)c2c(=O)c3ccc(N4CCCN(C)CC4)nc3n3c2sc2ccccc23)cn1 ?
Result: 36.6

Task: Which viability, T/C reading was recorded for the compound CC(C)(O)C1CCC(Nc2ccc3ncc(-c4cccc(C(F)(F)F)c4)n3n2)CC1 (stereo not given) + Cc1cnc(CNC(=O)c2c(=O)c3ccc(N4CCCN(C)CC4)nc3n3c2sc2ccccc23)cn1 ?
Result: 0.24

Task: Which viability, T/C reading was recorded for the compound COc1ccc([C@@H](O)c2cc(-c3ncnc4cc(N5CCOCC5)ccc34)c(F)cc2Cl)nn1 + Cc1cnc(CNC(=O)c2c(=O)c3ccc(N4CCCN(C)CC4)nc3n3c2sc2ccccc23)cn1 ?
Result: 39.9

Task: Which viability, T/C reading was recorded for the compound COc1ncnc(C2CC2)c1-c1ncc2cnn(Cc3ccc(-c4nc(C(F)(F)F)cn4C(C)C)cc3)c2n1 + Cc1cnc(CNC(=O)c2c(=O)c3ccc(N4CCCN(C)CC4)nc3n3c2sc2ccccc23)cn1 ?
Result: 46.6

Task: Which viability, T/C reading was recorded for the compound CC(=O)O[C@H]1C(=O)[C@@]2(C)[C@H]([C@H](OC(=O)c3ccccc3)[C@]3(O)C[C@H](OC(=O)[C@H](O)[C@@H](NC(=O)c4ccccc4)c4ccccc4)C(C)=C1C3(C)C)[C@]1(OC(C)=O)CO[C@@H]1C[C@@H]2O + Cc1cnc(CNC(=O)c2c(=O)c3ccc(N4CCCN(C)CC4)nc3n3c2sc2ccccc23)cn1 ?
Result: 24.1

Task: Which viability, T/C reading was recorded for the compound CC(C)n1c(=O)n(C)c2cnc3cc(F)c(-c4ccc(OCCCN5CCCCC5)nc4)cc3c21 + Cc1[nH]c2ccc(F)cc2c1-c1nc2c3cccnc3c3ncccc3c2[nH]1 ?
Result: 29.6

Task: Which viability, T/C reading was recorded for the compound CC1COCCN1c1cc(C2(S(C)(=N)=O)CC2)nc(-c2ccnc3[nH]ccc23)n1 (stereo not given) + Cc1cnc(CNC(=O)c2c(=O)c3ccc(N4CCCN(C)CC4)nc3n3c2sc2ccccc23)cn1 ?
Result: 43.9

Task: Which viability, T/C reading was recorded for the compound O=C(NO)c1cnc(N2CCN(S(=O)(=O)c3ccc4ccccc4c3)CC2)nc1 + Cc1[nH]c2ccc(F)cc2c1-c1nc2c3cccnc3c3ncccc3c2[nH]1 ?
Result: 6.51
